Tested on: P. falciparum stage V gametocytes
Design: BacTiter-Glo ATP luminescence viability of purified stage V gametocytes in 384-well plates, per cent inhibition versus DMSO
TEST_SETTINGS: 48 h, 5 µM; inhibitor
The campaign covered roughly 13,000 compounds. About 3,200 (25%) showed an effect of 50% or more. Some of the results follow.
QUANTITY_NAME: % Inhibition (%)
Numbers only; they are read as %.

Reference set, count: 3
Query :: Lab note: need % Inhibition with P. falciparum stage V gametocytes for entry OC(CNCc1ccccc1OCc1ccccc1)c1cc(Br)cs1 (centres unmarked) [TCMDC-140398] , please look it up.
Result :: 22.96

Query :: Any idea what % Inhibition came out for Cc1cc(N[C@@H](CC(C)C)C(=O)NCc2cccc(F)c2)nc(NCCc2ccccc2)n1 [TCMDC-134870] on P. falciparum stage V gametocytes?
Result :: 54.62

Query :: Give recorded % Inhibition with P. falciparum stage V gametocytes for the following compound: Cc1cc(N[C@@H](Cc2ccccc2)C(=O)NCCCOC(C)C)nc(NCCc2ccc(F)cc2)n1 [TCMDC-134866]
Result :: 73.24

Now let's try a different one.
Query :: Give P. falciparum stage V gametocytes % Inhibition for Cc1cc(N[C@@H](CC(C)C)C(=O)NCc2cccc(F)c2)nc(NCCc2ccc(F)cc2)n1 [TCMDC-134792]
Result :: 53.15
